Target: T1, MUC16^c114-N2 (human, chain 1 pos 1 and pos 30: N-glycosylated Asn (cell-made glycans), written N)
T1 construct: MUC16^c114 with Asn24 (Asn1800) changed to Ala, on SKOV3 cells; also called N24 mut c114; SKOV3-N24 mutc114; not shown: hrGFP of the phrGFP II-C vector, fused at the cytoplasmic carboxy-terminus
T1 chain: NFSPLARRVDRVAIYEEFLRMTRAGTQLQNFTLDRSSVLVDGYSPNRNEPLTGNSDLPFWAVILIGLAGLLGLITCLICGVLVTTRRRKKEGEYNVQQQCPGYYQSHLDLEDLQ
Assay: FACS, SKOV3-N24 mutc114
Listed below: geometric mean phycoerythrin (PE) fluorescence values for each entry.
Give only the figure.

- binder: "18C6.D12 (antibody, V domains shown, Mouse monoclonal from a hybridoma; also called MUC16 Glycosylation Antibody 18C6) VH: QVTLKESGPGILQPSQTLSLTCSFSGFSLSTVGMGVGWSRQPSGKGLEWLAHIWWDDEDKYYNPALKSRLTISKDTSKNQVFLKIANVDTADTATYYCTRIGTAQATDALDYWGQGTSVTVSS VL: DIVMTQAAPSVPVTPGESVSISCRSSKSLLHSNGNTYLYWFLQRPGQSPQRLIYYMSNLASGVPDRFSGRGSGTDFTLRISRVEAEDVGVYYCMQSLEYPLTFGGGTKLEIK"
  observed.result: 1830
- binder: "7B12.B3 (antibody, V domains shown, Mouse monoclonal from a hybridoma; also called MUC16 Glycosylation Antibody 7B12) VH: QVTLKESGPGILQPSQTLSLTCSFSGFSLSTVGMGVGWSRQPSGKGLEWLAHIWWDDEDKYYNPALKSRLTISKDTSKNQVFLKIANVDTADSATYYCTRIGTAQATDALDYWGQGTSVTVSS VL: DIVMTQAAPSVSVTPGESVSISCRSSKSLRKSNGNTYLYWFLQRPGQSPQRLIYYMSNLASGVPDRFSGRGSGTDFTLRISRVEAEDVGVYYCMQSLEYPLTFGGGTKLKIK"
  observed.result: 471
- binder: "4H11 (antibody, V domains shown) VH: EVKLQESGGGFVKPGGSLKVSCAASGFTFSSYAMSWVRLSPEMRLEWVATISSAGGYIFYSDSVQGRFTISRDNAKNTLHLQMGSLRSGDTAMYYCARQGFGNYGDYYAMDYWGQGTTVTVSS VL: DIELTQSPSSLAVSAGEKVTMSCKSSQSLLNSRTRKNQLAWYQQKPGQSPELLIYWASTRQSGVPDRFTGSGSGTDFTLTISSVQAEDLAVYYCQQSYNLLTFGPGTKLEVK"
  observed.result: 2650

Consider the record given below.
Prompt line: Give reported geometric mean phycoerythrin (PE) fluorescence value for 19C11.H6 (antibody, V domains shown, Mouse monoclonal from a hybridoma; Used as 89Zr-DFO-labelled antibody in the internalization assay; also called MUC16 Glycosylation Antibody 19C11) VH: QVNLKESGPGKLQPSQTLSLTCSFSGFSLSTLGMGVGWIRQSSGKGLEWLAHIWWDDDKYYNPALKSRLTISRATSKNQVFLKIVNVGTADTATYYCARIGTAQATDALDYWGQGTSVTVSS VL: DIVMTQAAPSIPVTPGESVSISCRSSKSLLHSNGNTYLYWFLQRPGQSPQRLIYYMSNLASGVPDRFSGRGSGTDFTLKISRVEAGDVGVYYCMQGLEHPLTFGGGTKLEIK
Response line: 486
